Test system: EKVX NSCLC
Test: NCI-60 one-dose screen, 48 h (100 = growth as untreated, 0 = no growth, -100 = all killed)
Details: 10 µM unless noted
Description: Growth inhibition of the EKVX human Non-Small Cell Lung tumor cell line is measured as a screen for anti-cancer activity. Cells are grown in 96 well plates and exposed to the test compound for 48 hours. Compounds are tested at a single concentration, which is 10^-5 M for most compounds. The reported endpoint is percent growth (GI% or GIPRCNT), where numbers from 0 - 100% represent growth inhibition, and numbers from -100% - 0 represent cell death. […]
Compounds without any hit were thinned out: in the full panel of roughly 83,000, 20% have a hit.
Output yes (1) for records whose growth is lower than 90%, no (0) for records at or above 90%.

## Task Is the reported growth for C=CCc1cc(C)ccc1NC(C(=O)NCC(=O)OC)c1ccccc1 (stereo not given) strictly below 90%?
## Result no (0)

## Task Is the reported growth for O=C(CS(=O)c1oc(-c2cccs2)nc1S(=O)(=O)c1ccc(Br)cc1)c1ccccc1 (stereo not given) strictly below 90%?
## Result no (0)

## Task Is the reported growth for CN1C(=O)N(C)C2Nn3c(s/c(=C\c4ccccc4)c3=O)=NC21 (stereo not given) strictly below 90%?
## Result no (0)

## Task Is the reported growth for `CN(C)CCNc1nc2ccccc2c2c(=O)c3cc(F)ccc3sc12` strictly below 90%?
## Result yes (1)
